Reference for the values: patent US20230257454A1

measured on: T1, human C5a (source not stated) (human, UniProt P01031 678-751)
T1 sequence: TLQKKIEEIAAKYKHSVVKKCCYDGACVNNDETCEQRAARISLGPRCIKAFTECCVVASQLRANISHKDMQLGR
measurement protocol: cell-based or functional assay
recorded metric: ROS IC50 (pM)
Answers are plain numbers, in pM.

A selection of reference data follows.
binder	ROS IC50 (pM)
Cab28 scFv (scFv, V domains shown) VH: DMQLVESGGGLVQPGGSLKVSCAASGFTFSDYYMQWVRQAPGKGPEWVGLIRNKAVGGTTQYAASVKGRFTISRDDSKSIVYLEMSSLKTEDTAVYYCVSRAGPPGLSWGQGVLVTVSS VL: DIVMIQNPLSLPVTPGEPASISCRSSQNLLATDGYTYLDWYLQKPGQSPQVLIYGGSKRASGVPDRFSGSGSGTDFTLKISKVEAEDVGIYYCLQHRALPPTFGQGTKLEIK	980
Cab46 (reformatted as human IgG1) (antibody, V domains shown) VH: EVQLVESGGGLVQPGGSLRLSCAASGFTFSDYYIQWVRQAPGKGPEWVGLIRNKAVGGTTTYAASVKGRFTISRDDSKNSAYLQMNSLKTEDTAVYFCVSRAGPPGLSWGQGVLVTVSS VL: DIVMTQSPLSLPVTPGEPASISCRSSQSLLATDGYEYLDWYLQKPGQSPQLLIYGASNRASGVPDRFSGSGSGTDFTLKISRVEAEDVGVYYCLQHKALPPTFGQGTKLEIK	660
Cab06 scFv (scFv, V domains shown) VH: EVHLVESGGGLVQPGGSLKVSCAASGFIFSDYYMQWVRQAPGKGPEWVGLIRKKVNGGTTEYAASVKGRFTISRDDSKSIVYLQMSSLKIEDTAVYYCVSRAGPPGLTWGQGVLVTISS VL: DIVMIQNPLSLPVTPGEPASISCRSSQSLLASDGYNYMDWYLQKPGQSPKVLIYGGSNRASGVPDRFSGSGSGTDFTLKITKVEAEDVGIYYCMQHKVLPPTFGQGTKLEIK	1030

Hello, I would appreciate it if you could give ROS IC50 for each entry below.
1. Cab25 scFv (scFv, V domains shown) VH: EVQLVESGGGFVQPGGSLKVSCVASGFTFSDYYIQWVRQAPGKGPEWVGLIRNKAVGGTTTYAASVKGRFTISRDDSKSVAYLQMTSLKTEDTAVYFCVSRAGPPGLSWGQGVLVTISS VL: DAVMTQTPLSLPVTPGEPASISCRSSQSLLASDGYNYIDWYLQRPGQSPKVLIYGGSNRASGVPDRFSGSGSGTYFTLKISKVEAEDVGFYFCLQHRALPPTFGQGTKLEIK
2. Cab24 scFv (scFv, V domains shown) VH: VVQLVESGGGLVQPGGSLKVSCAASGFIFSDYYMQWVRQAPGKGPEWVGLIRKKVNGGTTEYAASVKGRFTISRDDSKSIVYLQMSSLKIEDTAVYYCVSRAGPPGLAWGQGVLVTISS VL: DAVMTQTPLSLPVTPGEPASISCRSSQSLLASDGYNYIDWYLQRPGQSPKVLIYGGSNRASGVPDRFSGSGSGTYFTLKISKVEAEDVGFYFCLQHRALPPTFGQGTKLEIK

[540, 1440]
